Molecular target: T1, B-RCAL (BÜHLMANN recombinant calprotectin; His6-linker-S100A9-linker-S100A8) (human)
T1 chain: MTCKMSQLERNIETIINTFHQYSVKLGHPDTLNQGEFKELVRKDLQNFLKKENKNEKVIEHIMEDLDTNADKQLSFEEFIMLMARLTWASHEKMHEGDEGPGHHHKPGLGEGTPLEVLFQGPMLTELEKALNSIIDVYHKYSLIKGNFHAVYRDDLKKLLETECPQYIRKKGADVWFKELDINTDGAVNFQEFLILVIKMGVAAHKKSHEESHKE
Assay: FP
Details: modification not given
Quantity Measured: pKd
Give bare numbers, as −log10 of the molar value.

RSPESVAFPMFQSHWYSA [G18A] | 7.51
RSPESVAFAMFQSHWYSG [P9A] | 7.52
RSPESVAFPMFQSHAYSG [W15A] | 7.62

Query: Answer with reported pKd of RSPASVAFPMFQSHWYSG [E4A]
Response: 7.59
